As shown below, each of these compounds has a reported inhibition value.
# TESTED_SYSTEM: L-lactate dehydrogenase (Plasmodium falciparum (isolate CDC / Honduras)) (UniProt Q27743)
# Sequence (Q27743 whole entry, looked up): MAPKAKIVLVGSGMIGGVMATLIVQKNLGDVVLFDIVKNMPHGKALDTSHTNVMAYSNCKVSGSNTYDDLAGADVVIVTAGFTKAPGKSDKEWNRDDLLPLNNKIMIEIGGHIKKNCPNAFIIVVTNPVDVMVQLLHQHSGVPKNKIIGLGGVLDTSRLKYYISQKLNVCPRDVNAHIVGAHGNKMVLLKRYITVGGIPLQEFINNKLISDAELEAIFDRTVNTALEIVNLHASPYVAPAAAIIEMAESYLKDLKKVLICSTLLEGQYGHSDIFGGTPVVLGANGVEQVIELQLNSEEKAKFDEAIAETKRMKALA
# TEST_SUMMARY: PfLDH activity inhibition – cell lysate, 3D7 strain, counter-screen for P. falciparum growth inhibition project (AID 2304);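 note: 0% = vehicle and 100% = reference inhibitor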
# ASSAY_CONTEXT: P. falciparum 3D7 crude extract, LDH APAD/NBT absorbance; at 2 µM; stronger effect = higher value
State just the number; it will be interpreted in %.

Look over these answered cases.
| COMPOUND | TESTED_SYSTEM | UNIT_ABBREV | inhibition |
| --- | --- | --- | --- |
| Oc1ccccc1CN[C@@H]1CCCC[C@H]1NCc1ccccc1O | L-lactate dehydrogenase (Plasmodium falciparum (isolate CDC / Honduras)) (UniProt Q27743) | % | 2 |
| COc1ccc2nc(C)cc(NN=Cc3ccc(F)cc3)c2c1 | L-lactate dehydrogenase (Plasmodium falciparum (isolate CDC / Honduras)) (UniProt Q27743) | % | -8 |
| COc1ccc(CNC(=O)c2cnc3c(O)cccc3c2Nc2cccc(NC(=O)c3ccc(-c4ccccc4)cc3)c2)cc1 | L-lactate dehydrogenase (Plasmodium falciparum (isolate CDC / Honduras)) (UniProt Q27743) | % | 6 |

Q. Tell us which inhibition value is on record for COc1ccccc1Cn1ccnc1SCC(=O)Nc1cc(C(F)(F)F)ccc1Cl
A. 1

Q. # return recorded inhibition for entry CO/C(=C\C=C\c1cc2cc(Cl)c(Cl)cc2[nH]1)C(=O)NCCCN1CCN(c2ccc(OC)cc2)CC1
A. -7

Q. Report inhibition for Cc1ccc2c(Cc3cnc(N)nc3N)cc(C)c(N)c2n1
A. -2

Q. Retrieve inhibition measured for CCOc1cccc(C2c3c(oc4ccccc4c3=O)C(=O)N2CCN(CC)CC)c1 (stereo not given) and print it.
A. -2

Q. Tell me inhibition reported for O=C1NC(c2ccccc2)C2(CCN(CC(O)COc3cccc4ncccc34)CC2)O1 (stereo not given)
A. -4

Q. Please indicate inhibition recorded for COc1cc2c(cc1C(F)(F)F)N(C(=O)Nc1cc(F)cc(-c3cccnn3)c1)CC2
A. 6

Q. Give the reported value of inhibition for this record: CCN(CC)CCN(Cc1ccc(-c2ccc(C(F)(F)F)cc2)cc1)C(=O)c1c[nH]c2ccc(Br)cc12
A. -4

###

# TEST_SUMMARY: antimalarial activity against Dd2 strain (AID 2302);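 note: 0% = DMSO untreated growth and 100% = chloroquine plus artemisinin killed control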
# ASSAY_CONTEXT: P. falciparum Dd2 in RBCs, LDH growth readout, 72 h; at 2 µM
Active and inactive are the calls of the source.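 How the source made its calls: active means growth inhibition above 50% at the single 2 µM test dose, taken to imply half-maximal potency below 2 µM; inactive means the rest.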
Pick from 1 (yes) for active, 0 (no) for inactive when you respond.

| MOL_SMILES | QUALITATIVE_LABEL |
| --- | --- |
| Cc1[nH]c(C)c(-c2ccc(OCCCc3ccccn3)cc2)c(=O)c1Br | 1 (yes) |
| O=C(NC1CCN(Cc2ccsc2)CC1)c1ccc(-c2cccc(C(F)(F)F)c2)s1 | 0 (no) |
| CC1(C)N=C(N)N=C(N)N1OCCOc1cccc(C(F)(F)F)c1 | 1 (yes) |

Q. Identify the outcome logged in this assay for the compound shown: O=C(Nc1ccc(N2CCCN(Cc3cccc(F)c3)CC2)cc1)c1cccs1
A. 1 (yes)

Q. Short answer needed: outcome of this test for Cc1ccc(NC(=O)c2ccc(Cl)c(Cl)c2)cc1-c1ccc(C(=O)Nc2ccncc2)cc1 ?
A. 1 (yes)

###

# TEST_SUMMARY: human hepatoma cell viability loss – ATP luminescence, cytotoxicity control for P. falciparum antimalarial project, primary screen (AID 2303);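 note: 0% = DMSO wells and 100% = digitonin-killed cells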
# ASSAY_CONTEXT: HepG2 viability, 24-48 h, at 10 µM
Activity calls are given as the source filed them.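 Rule for the calls: active = inhibition above 50%; inactive = the rest.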
Entry note: the call must match one of active, inactive

Q. Query: recorded result category for Oc1ccc(-c2ccccc2)cc1CN1CCCCCC1 in this test
A. inactive

Q. Dear colleague, could you share the recorded outcome for CCCCOc1c(CCC)cc(Cc2cnc(N)nc2N)cc1CCC when you have a moment?
A. inactive

Q. Hi team, can someone confirm the assay call for O=C(/C=C/c1ccc([N+](=O)[O-])cc1)N1CCC(NS(=O)(=O)c2ccc(F)cc2)CC1 ?
A. inactive

###

# TEST_SUMMARY: antimalarial activity against Dd2 strain (AID 2302);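 note: 0% = DMSO untreated growth and 100% = chloroquine plus artemisinin killed control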
# ASSAY_CONTEXT: P. falciparum Dd2 in RBCs, LDH growth readout, 72 h; at 2 µM; stronger effect = higher value
Quick rule: growth inhibition of at least 40% means 1.0, below that means 0.0.

Solved entries:
| COMPOUND | QUALITATIVE_LABEL |
| --- | --- |
| COc1ccc2nccc([C@@H](O)CN3CCC(NCc4ccc(OC)c(NC=O)c4)CC3)c2c1 | 0.0 |
| COc1cc(OC)cc(-c2nn(-c3ccc([N+](=O)[O-])cc3Cl)c(=S)n2Cc2ccco2)c1 | 1.0 |
| O=C(NCCNc1ccnc(Nc2ccc(F)cc2)n1)Nc1ccc2c(c1)OCO2 | 0.0 |
| Cn1nc(-c2ccc(NC(=O)Nc3cc(C(F)(F)F)cc(C(F)(F)F)c3)c(F)c2)c2cnc(NCCN3CCOCC3)nc21 | 0.0 |
| Cc1ccccc1N1CCN(c2ccc(C(=O)NC3CC3)cn2)CC1 | 1.0 |
| O=C(NCCc1ccc(O)cc1)n1c2ccccc2c2ccccc21 | 1.0 |
| CC(Nc1nc(Nc2ccc(F)cc2)nc(SCC(N)=O)n1)c1ccccc1 (stereo not given) | 1.0 |
| CCNC(=O)c1ccc(-n2nc(C)cc2-c2ccccc2)cc1 | 1.0 |
| Cc1cc(C=C(P(=O)(OC(C)C)OC(C)C)P(=O)(OC(C)C)OC(C)C)c2ccccc2c1O | 1.0 |
| CCc1cc2c3c(N)nc(N)nc3ccc2n1C(C)CC (stereo not given) | 1.0 |

Q. Quick check, growth inhibition >= 40%? COc1ccc(Nc2nccc(NCC(O)c3cccc(C(F)(F)F)c3)n2)cc1 (stereo not given)
A. 0.0

Q. Is the recorded value of growth inhibition equal to or greater than 40% for this compound? Fc1cccc(Nc2nc(NCCc3ccc(Cl)cc3)nc(Nc3cccc(F)c3)n2)c1
A. 0.0

Q. Quick check: does CN(C)c1ccc(N2C(N)=NC(N)=NC23CCCC3)cc1 have growth inhibition greater than or equal to 40%?
A. 0.0

Q. Hi, just wondering whether N#Cc1cccc(C(=O)Nc2cccc(-c3ccc(C(=O)NCCCN4CCOCC4)cc3)c2)c1 shows growth inhibition of 40% or higher.
A. 0.0

Q. Could you tell me if the measured growth inhibition of CN(C)CCN(Cc1ccccc1-c1ccc(CNCCc2ccccc2)cc1)C(=O)c1ccccc1 reaches 40% or more?
A. 1.0

###

Below: a set of entries, each annotated with reported inhibition.
# TESTED_SYSTEM: L-lactate dehydrogenase (Plasmodium falciparum (isolate CDC / Honduras))
# TEST_SUMMARY: PfLDH activity inhibition – cell lysate, 3D7 strain, counter-screen for P. falciparum growth inhibition project (AID 2304);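 note: 0% = vehicle and 100% = reference inhibitor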
# ASSAY_CONTEXT: P. falciparum 3D7 crude extract, LDH APAD/NBT absorbance; at 2 µM; stronger effect = higher value
Number in %, nothing else.

Look over these answered cases.
| COMPOUND | MEASURED |
| --- | --- |
| CCCNCc1ccc(-c2ccc(CN(CCOC)C(=O)c3ccccc3)cc2)nc1 | -7 |
| Oc1cc(Nc2ccnc3cc(-c4cccc(CN5CCCCC5)c4)ccc23)c(F)cc1Cl | -3 |

Q. Return reported inhibition. Input compound: COC(=O)c1cccc(CN(CCC(O)(C(F)(F)F)C(F)(F)F)C(=O)CC2CCCC2)c1
A. 0

Q. Hello, please tell me recorded inhibition for this one: Cc1cc(C(=O)Nc2ccc3c(c2)CCN3C2CCN(Cc3ccc(O)cc3)C2)no1 (centres undefined)
A. -1

Q. Name the recorded inhibition of the item CCN(C(=O)c1ccc(NC(=O)c2cccs2)cc1)c1nc2c(C)cccc2s1 in your answer.
A. -3

Q. Let me know recorded inhibition for COc1cc(F)c2ncc(Cl)c(CCN3CCC(NCc4ccc5c(n4)NC(=O)CS5)CC3)c2c1 , thanks.
A. 3

###

# TEST_SUMMARY: human hepatoma cell viability loss – ATP luminescence, cytotoxicity control for P. falciparum antimalarial project, primary screen (AID 2303);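 note: 0% = DMSO wells and 100% = digitonin-killed cells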
# ASSAY_CONTEXT: HepG2 viability, 24-48 h, at 10 µM, stronger effect = higher value
This section presents compounds with their documented inhibition values.
Field: numeric (%). Do not append units.

Previously resolved entries follow.
| COMPOUND | MEASURED |
| --- | --- |
| CN(C)c1ccc(CN2CCC(NC(=O)c3ccc(-c4ccccc4Cl)s3)CC2)cc1 | 35 |
| CC(C)=CCN1CCC(C(=O)Nc2ccc(-c3nc4ccccc4[nH]3)cc2)CC1 | -2 |
| OCC1CCN(Cc2cccc(C#Cc3cc4ncnc(Nc5ccc(OCc6cccc(F)c6)c(Cl)c5)c4s3)n2)CC1 | 41 |
| FC(F)(F)c1ccc2nc(-c3cccc(-c4ccc(CNCC5CCCO5)cc4)c3)[nH]c2c1 (stereo not given) | 29 |
| CN(C)CC1CCCN1Cc1ccccc1-c1cnn(C)c(=O)c1Oc1cccc(C#N)c1 (stereo not given) | 26 |

Q. Give a short answer stating reported inhibition for O=C(Nc1ccc(OC2CCN(Cc3ccsc3)CC2)c(Cl)c1)c1cccs1 .
A. 16

Q. Supply measured inhibition of COc1ccc2ncc(Cl)c(CCN3CCC(NCc4ccc5c(n4)NC(=O)CS5)CC3)c2c1 in your reply.
A. 26

Q. Specify measured inhibition for CCN(CC)c1nc(-c2ccccc2)cc(-c2ccccc2)c1C#N .
A. -7

Q. Complete the entry with inhibition for CCN(CCCN1CCCCC1)c1cc(C)nc(Nc2ccc(C)c(Cl)c2)n1
A. 32

Q. Tell me its inhibition given CCN1CCN(CCCNc2ccnc3cc(Cl)ccc23)CC1 as the entry.
A. 7
